- target.system: UniProt Q02153
- assay.method.text: CHO cellular assay (cGMP production, Cisbio cGMP HTRF)
- details: CHO K1 cells overexpressing human GUCYA3/GUCYB3 (clone 8E10), 1 mM IBMX, 20 uM ODQ, 1 h room temperature, listed 0.5 nM means actual EC50 ≤0.5 nM (quantification limit)
Entries and their EC50
Field format: number, assumed nM, no unit text.

Field: example entries. Status: answers known.
molecule=O=C(O)c1cnn(-c2cccc(C3=C(COc4ccc(C5CCN(C(=O)C6CC6)CC5)cc4)CCCC3)n2)c1C(F)(F)F target_system="UniProt Q02153" data_value=6.3
molecule="CCc1cc(OCC2=C(c3cccc(-n4ncc(C(=O)O)c4CC)n3)CCCC2C)ccc1C1CCN(C(=O)[C@H](C)O)CC1 (single isomer, unassigned; diastereomer-2) [Example 18b]" target_system="UniProt Q02153" data_value=8.9
molecule="CCc1cc(OCC2=C(c3cccc(-n4ncc(C(=O)O)c4C(F)(F)F)n3)CCC2C)ccc1C1CCN(C(=O)C2CC2)CC1 (single isomer, unassigned; (-)) [Example 22(b) (−)]" target_system="UniProt Q02153" data_value=5.5
molecule=CCC(=O)N1CCC(c2ccc(OCC3=C(c4cccc(-n5ncc(C(=O)O)c5C(F)(F)F)n4)CCC3)c(C)c2)CC1 target_system="UniProt Q02153" data_value=2.4
molecule=Cc1cc(C2CCN(C(=O)c3ccccn3)CC2)ccc1OCC1=C(c2cccc(-n3ncc(C(=O)O)c3C(F)(F)F)n2)CCCC1 target_system="UniProt Q02153" data_value=8.4

Using known records, supply EC50 for O=C(O)c1cnn(-c2cccc(C3=C(COc4ccc([C@H]5CCN(C(=O)C6CC6)C[C@@H]5O)cc4)CCCC3)n2)c1C(F)(F)F (racemic)
420

Using known records, supply EC50 for Cc1cc(C2CCN(C(=O)[C@@H](C)O)CC2)ccc1OCC1=C(c2cccc(-n3ncc(C(=O)O)c3C(F)(F)F)n2)CCCC1
164

Using known records, supply EC50 for Cc1cc(C2CCN(C(=O)N(C)C)CC2)ccc1OCC1=C(c2cccc(-n3ncc(C(=O)O)c3C(F)(F)F)n2)CCCC1
1

----------
- target.system: soluble guanylate cyclase (Homo sapiens, UniProt Q02153)
- Sequence (Q02108 whole entry partner): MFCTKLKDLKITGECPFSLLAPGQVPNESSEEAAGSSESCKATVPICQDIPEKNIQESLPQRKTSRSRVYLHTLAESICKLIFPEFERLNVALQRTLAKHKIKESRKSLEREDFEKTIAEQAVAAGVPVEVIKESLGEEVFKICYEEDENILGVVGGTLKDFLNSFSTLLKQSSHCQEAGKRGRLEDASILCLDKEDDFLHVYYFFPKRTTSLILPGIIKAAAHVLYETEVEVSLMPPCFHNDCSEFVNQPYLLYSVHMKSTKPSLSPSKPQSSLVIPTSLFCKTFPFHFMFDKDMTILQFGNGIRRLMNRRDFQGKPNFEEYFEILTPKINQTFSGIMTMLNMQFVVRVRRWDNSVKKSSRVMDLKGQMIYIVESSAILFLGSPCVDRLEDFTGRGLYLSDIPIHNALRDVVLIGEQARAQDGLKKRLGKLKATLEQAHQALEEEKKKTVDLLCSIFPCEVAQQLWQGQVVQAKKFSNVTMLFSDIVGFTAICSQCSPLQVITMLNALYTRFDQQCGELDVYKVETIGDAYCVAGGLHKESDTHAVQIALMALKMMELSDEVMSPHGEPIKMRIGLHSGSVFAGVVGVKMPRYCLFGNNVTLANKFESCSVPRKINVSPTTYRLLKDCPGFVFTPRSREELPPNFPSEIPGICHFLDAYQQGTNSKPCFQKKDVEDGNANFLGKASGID
- Sequence (Q02153 whole entry): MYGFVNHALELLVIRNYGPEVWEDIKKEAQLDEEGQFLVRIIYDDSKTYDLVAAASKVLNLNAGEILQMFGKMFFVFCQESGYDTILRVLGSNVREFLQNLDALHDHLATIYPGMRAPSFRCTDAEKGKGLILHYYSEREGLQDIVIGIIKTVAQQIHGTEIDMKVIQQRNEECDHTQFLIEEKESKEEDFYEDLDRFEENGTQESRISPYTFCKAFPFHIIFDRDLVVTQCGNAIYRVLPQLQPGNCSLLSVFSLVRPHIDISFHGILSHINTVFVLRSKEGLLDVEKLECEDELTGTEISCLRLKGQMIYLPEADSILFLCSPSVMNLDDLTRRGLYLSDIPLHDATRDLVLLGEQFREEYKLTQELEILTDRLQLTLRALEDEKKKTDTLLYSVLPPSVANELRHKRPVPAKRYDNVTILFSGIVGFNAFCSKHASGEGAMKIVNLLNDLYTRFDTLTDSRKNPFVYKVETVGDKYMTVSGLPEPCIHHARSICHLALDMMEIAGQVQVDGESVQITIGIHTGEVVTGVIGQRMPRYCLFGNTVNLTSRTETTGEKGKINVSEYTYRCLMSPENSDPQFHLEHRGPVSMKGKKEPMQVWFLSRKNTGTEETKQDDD
- assay.method.text: CHO cellular assay (cGMP production, Cisbio cGMP HTRF)
- details: CHO K1 cells overexpressing human GUCYA3/GUCYB3 (clone 8E10), 1 mM IBMX, 20 uM ODQ, 1 h room temperature, listed 0.5 nM means actual EC50 ≤0.5 nM (quantification limit)
quantity: pEC50
Remember, pEC50 is on a log scale: it is -log10 of the molar concentration.

compound=CCNC(=O)N1CCC(c2ccc(OCC3=C(c4cccc(-n5ncc(C(=O)O)c5C(F)(F)F)n4)CCCC3)c(C)c2)CC1 data_value=7.85

API: the following record is the query input.
Please report pEC50 with soluble guanylate cyclase (Homo sapiens, UniProt Q02153) for item CCc1cc(OCC2=C(c3cccc(-n4ncc(C(=O)O)c4C(F)F)n3)CCCC2C)ccc1C1CCN(C(=O)C2CC2)CC1 (single isomer, unassigned; (-)) [Example 20b (−)] .
8.70

----------
- target.system: soluble guanylate cyclase (Homo sapiens)
- Construct: expressed in transfected cells
- assay.method.text: CHO cellular assay (cGMP production, Cisbio cGMP HTRF)
- Assay type: cell-based
- details: CHO K1 cells overexpressing human GUCYA3/GUCYB3 (clone 8E10), 1 mM IBMX, 20 uM ODQ, 1 h room temperature, listed 0.5 nM means actual EC50 ≤0.5 nM (quantification limit)
pEC50: −log10 of the molar value.
Outcome label depends on pEC50 relative to 8: at/above gives Condition met, below gives Condition not met.

Solved cases below.
molecule="Cc1cc(C2CCN(CC(F)(F)F)CC2)ccc1OCC1=C(c2cccc(-n3ncc(C(=O)O)c3C(F)(F)F)n2)CCC1 [Example 25]" class_assignment="Condition met"
molecule="Cc1cc(C2CCN(C(=O)C3CCC3)CC2)ccc1OCC1=C(c2cccc(-n3ncc(C(=O)O)c3C(F)(F)F)n2)CCCC1 [Example 2-11]" class_assignment="Condition met"
molecule="Cc1cc(C2CCN(C(=O)CO)CC2)ccc1OCC1=C(c2cccc(-n3ncc(C(=O)O)c3C(F)(F)F)n2)CCC1 [Example 24-1]" class_assignment="Condition not met"

Confirm if pEC50 reported for the molecule Cc1cc(C2CCN(C(=O)C3CC3)CC2)ccc1OCC1=C(c2cccc(-n3ncc(C(=O)O)c3C(F)(F)F)n2)CC(C)CC1 (single isomer, unassigned; (-)) [Example 12 (−)] is 8 or above.
Condition met

Confirm if pEC50 reported for the molecule COC(=O)N1CCC(c2ccc(OCC3=C(c4cccc(-n5ncc(C(=O)O)c5C(F)(F)F)n4)CCC3)c(C)c2)CC1 [Example 24-3] is 8 or above.
Condition not met

Confirm if pEC50 reported for the molecule Cc1cc(C2CCN(S(C)(=O)=O)CC2)ccc1OCC1=C(c2cccc(-n3ncc(C(=O)O)c3C(F)(F)F)n2)CCC1 [Example 24-4] is 8 or above.
Condition met

----------
- target.system: soluble guanylate cyclase (Homo sapiens)
- Construct: expressed in transfected cells
- assay.method.text: CHO cellular assay (cGMP production, Cisbio cGMP HTRF)
- Assay type: cell-based
- details: CHO K1 cells overexpressing human GUCYA3/GUCYB3 (clone 8E10), 1 mM IBMX, 20 uM ODQ, 1 h room temperature, listed 0.5 nM means actual EC50 ≤0.5 nM (quantification limit)
- Description: Chinese hamster ovary (CHO) cells overexpressing soluble guanylate cyclase were generated to test the effect of sGC activators in a cellular context. Human cDNAs for GUCYA3 (RefSeq: NM_000856.3) and GUCYB3 (RefSeq: NM_000857.1) were amplified by PCR from a HUVEC (Human Umbilical Vein Endothelial Cells) cDNA library and cloned into mammalian expression vectors. […] The EC50s are calculated based on the amount of cGMP interpolated from the standard curve, using a 4-parameter sigmoidal dose-response. […]
Entries and their pEC50
Remember, pEC50 is on a log scale: it is -log10 of the molar concentration.

molecule="Cc1cc(C2CCN(C(=O)OC(C)(C)C)CC2)ccc1OCC1=C(c2cccc(-n3ncc(C(=O)O)c3C(F)(F)F)n2)CCCC1 [Example 2-13]" data_value=6.96
molecule="Cc1cc(C2CCN(CC3CC3)CC2)ccc1OCC1=C(c2cccc(-n3ncc(C(=O)O)c3C(F)(F)F)n2)CCCC1 [Example 6-3]" data_value=6.43
molecule="Cc1cc(C2CCN(C(=O)C3CC3)CC2)ccc1OCC1=C(c2cccc(-n3ncc(C(=O)O)c3C(F)(F)F)c2)CC(C)CC1 (racemic) [Example 28]" data_value=7.66

API: the following record is the query input.
Using known records, supply pEC50 for Cc1cc(C2CCN(C(=O)C3CC3)CC2)ccc1OCC1=C(c2cccc(-n3ncc(C(=O)O)c3C(F)(F)F)n2)CCCC1C (single isomer, unassigned; (-)) [Example 15b]
9.00

----------
Entries and their EC50
- target.system: soluble guanylate cyclase (Homo sapiens)
- assay.method.text: CHO cellular assay (cGMP production, Cisbio cGMP HTRF)
- details: CHO K1 cells overexpressing human GUCYA3/GUCYB3 (clone 8E10), 1 mM IBMX, 20 uM ODQ, 1 h room temperature, listed 0.5 nM means actual EC50 ≤0.5 nM (quantification limit)
Field format: number, assumed nM, no unit text.

Field: example entries. Status: answers known.
compound="CCc1cc(OCC2=C(c3cccc(-n4ncc(C(=O)O)c4CC)n3)CCCC2C)ccc1C1CCN(C(=O)C2CC2)CC1 (single isomer, unassigned; (-)) [Example 17b]" target_system="soluble guanylate cyclase (Homo sapiens)" unit_of_measure=nM data_value=1.4
compound="CCc1cc(OCC2=C(c3cccc(-n4ncc(C(=O)O)c4C(F)(F)F)n3)CCCC2C)ccc1C1CCN(C(=O)C2CC2)CC1 (single isomer, unassigned; (-)) [Example 13b]" target_system="soluble guanylate cyclase (Homo sapiens)" unit_of_measure=nM data_value=9
compound="Cc1cc(C2CCN(C(=O)CO)CC2)ccc1OCC1=C(c2cccc(-n3ncc(C(=O)O)c3C(F)(F)F)n2)CCCC1 [Example 2-5]" target_system="soluble guanylate cyclase (Homo sapiens)" unit_of_measure=nM data_value=2.4
compound="CC1CCCC(c2cccc(-n3ncc(C(=O)O)c3C(F)(F)F)n2)=C1COc1ccc2c(c1)CCN(Cc1ccccn1)C2 (racemic) [Example 29-1]" target_system="soluble guanylate cyclase (Homo sapiens)" unit_of_measure=nM data_value=3.9
compound="CCc1cc(OCC2=C(c3cccc(-n4ncc(C(=O)O)c4C(F)(F)F)n3)CCCC2(C)C)ccc1C1CCN(C(=O)C2CC2)CC1 [Example 14]" target_system="soluble guanylate cyclase (Homo sapiens)" unit_of_measure=nM data_value=1

Using known records, supply EC50 for Cc1cc(C2CCN(S(C)(=O)=O)CC2)ccc1OCC1=C(c2cccc(-n3ncc(C(=O)O)c3C(F)(F)F)n2)CCCC1 [Example 2-3]
1

Using known records, supply EC50 for CCc1cc(OCC2=C(c3cccc(-n4ncc(C(=O)O)c4C(F)(F)F)n3)CCCC2C)ccc1C1CCN(C(=O)C2CC2)CC1 (single isomer, unassigned; (+)) [Example 13a]
1

Using known records, supply EC50 for CCc1cc(C2CCN(C(=O)C3CC3)CC2)ccc1OCC1=C(c2cccc(-n3ncc(C(=O)O)c3C(F)(F)F)n2)CCCC1 [Example 8-1]
5.5

Using known records, supply EC50 for O=C(O)c1cnn(-c2cccc(C3=C(COc4ccc5c(c4)CCN(Cc4ccccn4)C5)CCCC3)n2)c1C(F)(F)F [Example 8-2]
34

Using known records, supply EC50 for Cc1cc(C2CCN(C(=O)C3CC3)CC2)ccc1OCC1=C(c2cccc(-n3ncc(C(=O)O)c3C(F)(F)F)c2)CCCC1 [Example 10]
1
